- Tested on: HMGB1
- protocol-notes: LPS-induced HMGB1 release in RAW 264.7 macrophage cultures (western blot)
- Format: cell-based, murine
- condition-info: Mus musculus, RAW264.7, 16 h, read-out: estimated IC50 for LPS-induced HMGB1 release
pIC50: −log10 of the molar value.
outcome-measure: pIC50

// pIC50 lookup, molecule = CC1COC2=C1C(=O)C(=O)c1c2ccc2c1CCCC2(C)C (stereo not shown) , result: > 4.60
